- Test system: Aspergillus fumigatus
Measurement Name: MIC

- Compound: "OC(Cn1ccnc1)(c1ccc(Cl)cc1)c1csc(N2CCCCC2)n1 (stereo not shown) [Verbindung 18]"
  Observed Measurement: "32 µg/mL"

Now consider the entry below.
# input Give the measured MIC of Cc1ccc(-c2nc(C(O)(Cn3cncn3)c3ccc(Cl)cc3)cs2)cc1 (stereo not shown) [Verbindung 15] .
# output 4 µg/mL

###

Reported MIC for target or system Aspergillus fumigatus, by entry.

Solved cases below.
- Compound: "Cc1ccc(C(O)(Cn2ccnc2)c2csc(-c3ccc(Cl)cc3)n2)cc1 (centres unmarked)"
  MIC: "16 µg/mL"
- Compound: "CC(C)(n1cncn1)C(O)(Cn1ccnc1)c1ccc(F)cc1 (centres unmarked) [(B), reference compound]"
  MIC: "> 64 µg/mL"

# input Look up MIC with Aspergillus fumigatus for this compound: Cc1ccc(-c2nc(C(O)(Cn3ccnc3)c3ccc(Cl)cc3)cs2)cc1 (centres unmarked)
# output 4 µg/mL

# input // lookup MIC | system=Aspergillus fumigatus | key= Cc1nc(C(O)(Cn2cncn2)c2ccc(F)cc2)cs1 (centres unmarked)
# output 32 µg/mL

# input Request: MIC, test system Aspergillus fumigatus, entry OC(Cn1cncn1)(Cn1cncn1)c1ccccc1 [(A), reference compound]
# output > 64 µg/mL
